Give viability, T/C for every item shown.
- Test system: 252836-082-R-J2-PDC tumor spheroids, viability;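 further: spheroids exposed to agents for seven days before readout; percent of vehicle DMSO control viability so 100% = untreated growth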
- assayDetails: Anticancer human tumor 252836-082-R-J2-PDC patient-derived head and neck squamous cell carcinoma cell line growth inhibition [PI3K]
- experimentalParameters: second compound 0.0316 µM; first compound 0.0316 µM; active compounds read low; spheroids with HUVEC and MSC
Supply the numeric figure in %, leaving out any unit text.

Recall and state the measured viability, T/C for Cn1nccc1Nc1nccc(-c2ccn(C(CO)c3ccc(Cl)c(F)c3)c(=O)c2)n1 (stereo not given) + CC(Nc1ccc2c(c1)OCCn1cc(N3C(=O)OCC3C(F)F)nc1-2)C(N)=O .
69.4

Supply reported viability, T/C belonging to this compound: CC(Cn1ccc(-c2ccc(C#N)c(Cl)c2)n1)NC(=O)c1cc(C(C)O)[nH]n1 (stereo not given) + CC(Nc1ccc2c(c1)OCCn1cc(N3C(=O)OCC3C(F)F)nc1-2)C(N)=O
78.4

Report viability, T/C for CCN1CCN(Cc2ccc(Nc3ncc(F)c(-c4cc(F)c5nc(C)n(C(C)C)c5c4)n3)nc2)CC1 + Cc1nc(NC(=O)N2CCCC2C(N)=O)sc1-c1ccnc(C(C)(C)C(F)(F)F)c1
80.8

State its viability, T/C for this compound: Cn1ncnc1[C@H]1c2n[nH]c(=O)c3cc(F)cc(c23)N[C@@H]1c1ccc(F)cc1 + CC(Nc1ncnc2nc[nH]c12)c1cc2cccc(Cl)c2c(=O)n1-c1ccccc1
79.6

Please give the documented viability, T/C of CC(=O)c1c(C)c2cnc(Nc3ccc(N4CCNCC4)cn3)nc2n(C2CCCC2)c1=O + CC(Nc1ccc2c(c1)OCCn1cc(N3C(=O)OCC3C(F)F)nc1-2)C(N)=O
81.4
